# Tested on: SF-268
# EXPERIMENT_SUMMARY: NCI tumour cell line growth inhibition, 48 h
Calls of active or inactive are those of the source. Cut-off read from the data, not from the text of the source: active = GI50 up to about 1.1 µM and inactive = higher.
REPORTED_PROPERTY: GI50

{"COMPOUND": "CCOC(=O)C(Cc1ccc(OC(=O)c2ccc(OC)cc2OC)cc1)NC(=O)C(F)(F)F (stereo unspecified)", "GI50": "31.1 µM (inactive)"}
{"COMPOUND": "CNC(=O)C(C)Oc1ccc(OCC2CCCCC2)cc1 (stereo unspecified)", "GI50": "> 100 µM (inactive)"}
{"COMPOUND": "CCOc1ncn(-c2ccc(NC(=S)Nc3cnccn3)cc2)n1", "GI50": "> 10 µM (inactive)"}
{"COMPOUND": "O=C(NNCC(F)(F)F)c1ccncc1", "GI50": "> 100 µM (inactive)"}
{"COMPOUND": "CC(NC(=O)C(N)Cc1ccc(O)cn1)C(=O)O (stereo unspecified)", "GI50": "> 100 µM (inactive)"}

The measured GI50 associated with c1cnc2c(c1)Nc1cnncc1S2 reads > 100 µM (inactive)

FYI, the data here is from ChEMBL document CHEMBL1201862.
